Parameter 'readout' = EC50; parameter 'system' = UniProt P35557.
Sequence (P35557 whole entry): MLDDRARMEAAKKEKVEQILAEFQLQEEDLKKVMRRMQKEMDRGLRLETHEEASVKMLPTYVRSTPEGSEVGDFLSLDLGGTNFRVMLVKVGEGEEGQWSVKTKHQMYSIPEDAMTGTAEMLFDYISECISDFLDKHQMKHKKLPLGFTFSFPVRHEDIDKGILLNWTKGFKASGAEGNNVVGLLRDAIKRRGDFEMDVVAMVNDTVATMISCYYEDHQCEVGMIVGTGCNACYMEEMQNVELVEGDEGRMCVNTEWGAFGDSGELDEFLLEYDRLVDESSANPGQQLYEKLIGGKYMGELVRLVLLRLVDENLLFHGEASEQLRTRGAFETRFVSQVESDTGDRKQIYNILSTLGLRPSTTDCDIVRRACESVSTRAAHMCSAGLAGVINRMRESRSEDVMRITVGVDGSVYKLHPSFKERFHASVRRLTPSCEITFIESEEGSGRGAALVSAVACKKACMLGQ
measure: EC50 (nM)

structure.notation: CC(C)S(=O)(=O)c1ccn([C@@H](CC2CCCC2)C(=O)Nc2cc[nH]n2)c(=O)c1
measure: EC50
measured.result: 720
//
structure.notation: CCS(=O)(=O)c1ccn([C@@H](CC2CCOCC2)C(=O)Nc2ccc(C)cn2)c(=O)c1
measure: EC50
measured.result: 1500
//
structure.notation: Cc1ccc(NC(=O)[C@H](CC2CCCC2)n2ccc(S(=O)(=O)C(C)C)c(Cl)c2=O)nc1
measure: EC50
measured.result: 70
//
structure.notation: CC(C)S(=O)(=O)c1ccn([C@@H](CC2CCCC2)C(=O)Nc2ccc(C(F)(F)F)cn2)c(=O)c1
measure: EC50
measured.result: 330
//
structure.notation: CS(=O)(=O)c1cc(=O)n([C@@H](CC2CCCC2)C(=O)Nc2ccc(Cl)cn2)cc1Cl
measure: EC50
measured.result: 140
//
structure.notation: Cc1cnc(NC(=O)[C@H](CC2CCCC2)n2ccc(S(C)(=O)=O)cc2=O)cn1
measure: EC50
measured.result: 3500
//
structure.notation: Cc1ccc(NC(=O)[C@H](CC(C)C)n2ccc(S(=O)(=O)C(C)C)cc2=O)nc1
measure: EC50
measured.result: 510
//
structure.notation: Cc1ccc(NC(=O)[C@H](CC2CCC2)n2ccc(S(=O)(=O)C(C)C)cc2=O)nc1
measure: EC50
measured.result: 670
//
structure.notation: CC(C)S(=O)(=O)c1ccn([C@@H](CC2CCCC2)C(=O)Nc2ccccn2)c(=O)c1
measure: EC50
measured.result: 600
//
structure.notation: Cn1ccc(NC(=O)[C@H](CC2CCCC2)n2ccc(S(=O)(=O)C3CC3)cc2=O)n1
measure: EC50
measured.result: 1500
//
structure.notation: Cc1ccc(NC(=O)[C@H](CC2CCCC2)n2cc(Cl)c(S(C)(=O)=O)cc2=O)nc1
measure: EC50
measured.result: 480
//
structure.notation: Cc1ccc(NC(=O)[C@H](CC2CCCC2)n2ccc(S(=O)(=O)C3CCC3)cc2=O)nc1
measure: EC50
measured.result: 60
//
structure.notation: Cc1ccc(NC(=O)[C@H](CC2CCCCC2)n2ccc(S(=O)(=O)C(C)C)cc2=O)nc1
measure: EC50
measured.result: 240
//
structure.notation: Cc1cnc(NC(=O)[C@H](CC2CCCC2)n2cc(Cl)c(S(=O)(=O)C(C)C)cc2=O)cn1
measure: EC50
measured.result: 700
//
structure.notation: O=C(Nc1cnccn1)[C@H](CC1CCCC1)n1ccc(S(=O)(=O)C2CC2)cc1=O
measure: EC50
measured.result: 1300
//
structure.notation: Cc1csc(NC(=O)c2cc(Sc3nccn3C)c(F)cc2N)n1
measure: EC50
measured.result: 620
//
structure.notation: CC(C)S(=O)(=O)c1ccn([C@@H](CC2CCCC2)C(=O)Nc2nccs2)c(=O)c1
measure: EC50
measured.result: 1300
//
structure.notation: CCS(=O)(=O)c1ccn([C@@H](CC2CCCC2)C(=O)Nc2ccc(C)cn2)c(=O)c1
measure: EC50
measured.result: 500
//
structure.notation: Cc1ccc(NC(=O)[C@H](CC2CCCC2)n2cc(C)c(S(=O)(=O)C(C)C)cc2=O)nc1
measure: EC50
measured.result: 160
//
structure.notation: Cc1ccc(NC(=O)[C@H](Cc2ccccc2)n2ccc(S(=O)(=O)C(C)C)cc2=O)nc1
measure: EC50
measured.result: 3300
//
structure.notation: Cn1ccc(NC(=O)[C@H](CC2CCCC2)n2ccc(S(=O)(=O)C3CCC3)cc2=O)n1
measure: EC50
measured.result: 260
//
structure.notation: CC(C)S(=O)(=O)c1ccn([C@@H](CC2CCCC2)C(=O)Nc2ccn(C)n2)c(=O)c1
measure: EC50
measured.result: 910
//
structure.notation: Cc1ccc(NC(=O)[C@H](CC2CCCC2)n2ccc(S(=O)(=O)C3CC3)cc2=O)nc1
measure: EC50
measured.result: 110
//
structure.notation: Cc1ccc(NC(=O)[C@H](CC2CCCC2)n2ccc(S(=O)(=O)C(C)C)cc2=O)nc1
measure: EC50
measured.result: 230
//
structure.notation: O=C(Nc1cnccn1)[C@H](CC1CCCC1)n1ccc(S(=O)(=O)C2CCC2)cc1=O
measure: EC50
measured.result: 590
//
structure.notation: Cc1ccc(NC(=O)[C@H](CC2CCCC2)n2ccc(S(C)(=O)=O)cc2=O)nc1
measure: EC50
measured.result: 560
//
structure.notation: Cc1ccc(NC(=O)[C@H](CC2CCCC2)n2cc(Cl)c(S(=O)(=O)C(C)C)cc2=O)nc1
measure: EC50
measured.result: 260
//
structure.notation: Cc1ccc(NC(=O)[C@H](CC2CCCC2)n2cc(C)c(S(C)(=O)=O)cc2=O)nc1
measure: EC50
measured.result: 440
//
structure.notation: Cc1ccc(NC(=O)[C@H](CC2CCC(F)(F)CC2)n2ccc(S(=O)(=O)C(C)C)cc2=O)nc1
measure: EC50
measured.result: 160

Values from ChEMBL document CHEMBL1782019
